Assembled from different publications: pIC50 for Cytochrome P450 3A4 (Homo sapiens, UniProt P08684).
pIC50: −log10 of the molar value.

Use the examples below as a reference point.
CN(C)CCN(C)C1CCN(c2nc3ccccc3n2Cc2ccc(F)cc2)CC1 = < 5.30
COc1ccc(C#Cc2ccc(C(=O)N3CCC[C@@H](CO)C3)cc2)cc1 = < 4.52
Cc1ccc(S(=O)(=O)Nc2c(C(=O)N[C@@H](C)C(C)(C)C)c(C)nn2-c2ccccc2)cc1 = < 5.00

Could you now consider this next compound?
q: Given `N#Cc1cc(OC(F)(F)F)cc(-c2nc(-c3ccc4c(c3)CCN4C(=O)CCC(=O)O)no2)c1` , report its pIC50 on Cytochrome P450 3A4 (Homo sapiens, UniProt P08684).
Sequence (P08684 whole entry): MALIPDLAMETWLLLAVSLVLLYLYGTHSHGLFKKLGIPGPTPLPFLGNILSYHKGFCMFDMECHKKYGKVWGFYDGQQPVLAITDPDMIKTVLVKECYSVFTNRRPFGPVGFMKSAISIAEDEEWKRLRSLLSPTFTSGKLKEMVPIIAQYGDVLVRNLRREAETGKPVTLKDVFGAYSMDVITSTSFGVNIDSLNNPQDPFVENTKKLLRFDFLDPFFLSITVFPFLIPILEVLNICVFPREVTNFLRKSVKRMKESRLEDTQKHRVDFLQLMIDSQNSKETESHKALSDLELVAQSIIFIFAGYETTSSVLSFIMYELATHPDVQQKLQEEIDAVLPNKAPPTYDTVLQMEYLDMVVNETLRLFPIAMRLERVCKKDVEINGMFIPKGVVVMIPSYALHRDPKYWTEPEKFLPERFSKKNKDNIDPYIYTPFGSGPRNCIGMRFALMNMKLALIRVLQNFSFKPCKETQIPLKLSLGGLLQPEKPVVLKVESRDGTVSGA
a: < 4.30

* * *

// compounds with IC50 on Cytochrome P450 3A4 (Homo sapiens, UniProt P08684), multi-source literature

Solved cases below.
COc1cccc(NC(C(=O)c2c[nH]c3ccccc23)c2nc3ccccc3o2)c1 (stereo unspecified) = > 10 µM
Nc1oncc1-n1cccn1 = > 10 µM
Cc1ccn(-c2ccc(C(=O)N3CCC(F)(F)/C(=C\C(=O)O)c4ccccc43)c(Cl)c2)n1 = > 20 µM
Cn1cc(Cn2c(=O)c3cc(S(=O)(=O)NC4(C)CC4)ccc3n(CC3COC3)c2=O)cn1 = > 10 µM
O=C(Cn1cncn1)c1ccc(Cl)cc1Cl = > 15 µM

Could you now look at the following compound, please?
q: Provide one value: measured IC50 of `O=C1Nc2ccc(F)cc2[C@]12C[C@H]2c1ccc2c(/C=C/c3ccc(CN4CCOCC4)cc3)n[nH]c2c1`
a: > 1 µM

* * *

Across several studies, compounds have been characterized by their pIC50 on UniProt:P08684; a selection follows.
pIC50: −log10 of the molar value.

Here's what some known entries look like.
Cc1cc(N2CCc3c(c(C)nn3CC34CCC(N5CCC5)(CC3)CC4)C2)c2cnn(C)c2n1 = < 4.30
CCOC(=O)[C@H](Cc1ccc(NC(=O)c2c(Cl)cncc2Cl)cc1)NC(=O)[C@@H]1C[C@@H](NC2CCC2)CN1S(=O)(=O)c1cc(Cl)cc(Cl)c1 = > 6.40
O=C(O)c1cnc(N(C(=O)c2ccc(OCc3cccc(C(F)(F)F)c3)cc2)C2CCCCC2)s1 = < 4.52
C[C@H](COc1ccc(C2=NNC(=O)C3CC23)cc1)CN1CCC[C@H]1C (mixture of isomers) = < 4.52
Cc1cccc2nc(C(=O)N[C@H]3CC[C@@H](NC(=O)c4cc(F)cnc4Oc4cccc(-c5ccc(CN6CCC(N7CCCC7)CC6)cc5)c4)CC3)cn12 = < 6.00

Here is the next item to consider.
q: Report pIC50 from UniProt:P08684 testing of `Cc1nc([C@H](C(=O)NC(C)C)N2C(=O)[C@@H](C3Cc4ccccc4C3)NC(=O)[C@H]2CC(C)C)co1`
a: < 4.00

* * *

pIC50: −log10 of the molar value.
Collected set of pIC50 measured with Cytochrome P450 3A4 (Homo sapiens, UniProt P08684) across studies.

q: Please tell me the measured pIC50 for `CN1CC[C@H](S(=O)(=O)c2c(Cl)ccc(NC(=O)Nc3cccc(Cl)c3Cl)c2O)C1` ; system: Cytochrome P450 3A4 (Homo sapiens, UniProt P08684).
a: < 5.00

q: // output pIC50; input Cc1cccc(-c2noc(C3CC(=O)N(c4ccc(F)cc4)C3)n2)c1 (racemic) ; system Cytochrome P450 3A4 (Homo sapiens, UniProt P08684)
a: < 4.96

q: Enter measured pIC50, system Cytochrome P450 3A4 (Homo sapiens, UniProt P08684), for the molecule shown: `CCN(CC)Cc1cc(Nc2ccnc3cc(Cl)ccc23)ccc1O`
a: < 4.30
